# Experimental details: Half life in BALB/c mouse plasma at 10 to 200 uM
# Type: ADME, cell-free
# Test context: dose 10-200 µM
Quantity measured: half-life at up to 200 µM (h)
The reply should be a number in h, with the unit left off.

[in] Param item = CCOC(=O)C[C@H]1CSC[C@]1(C(=O)OCC)n1cnc2c(Cl)nc(Cl)nc21 (racemic) ; retrieve measured half-life at up to 200 µM.
[out] 3

====

As shown below, each of these compounds has a reported IC50 value.
# System: MCF7
# Experimental details: Antiproliferative activity against human MCF7 cells assessed as inhibition of cell growth incubated for 48 hrs by CCK-8 assay
# Type: functional, cell-based
# Test context: Homo sapiens, MCF7, 48 h

CCOC(=O)C[C@H]1CSC[C@]1(C(=O)OCC)n1cnc2c(N3CCCC3)ncnc21 (racemic) : > 50 µM
CCOC(=O)C[C@H]1CSC[C@]1(C(=O)OC(C)C)n1cnc2c(Cl)ncnc21 (racemic) : 13 µM
CCOC(=O)C[C@@H]1CSC[C@]1(C(=O)OCC)n1cnc2c(Cl)nc(Cl)nc21 (racemic) : 4.06 µM
CCOC(=O)C[C@H]1CSC[C@]1(C(=O)OCC)n1cnc2c(OCC)ncnc21 (racemic) : > 50 µM
CCOC(=O)C[C@@H]1CSC[C@]1(C(=O)OCC)n1cnc2c(OCC)ncnc21 (racemic) : > 50 µM

[in] Param item = CCOC(=O)C[C@H]1CSC[C@]1(C(=O)OCC)n1cnc2c(N3CCCCC3)nc(Cl)nc21 (racemic) ; retrieve measured IC50.
[out] > 50 µM

[in] Another: CCOC(=O)C[C@H]1CSC[C@]1(C(=O)OCC)n1cnc2c(N(C)C)ncnc21 (racemic)
[out] > 50 µM

[in] Another: CCOC(=O)C[C@H]1CSC[C@]1(C(=O)OCC)n1cnc2c(Cl)nc(Cl)nc21 (racemic)
[out] 5.54 µM
